- TESTED ON: Voltage-gated inwardly rectifying potassium channel KCNH2 (Homo sapiens, UniProt Q12809)
- Sequence (Q12809 whole entry): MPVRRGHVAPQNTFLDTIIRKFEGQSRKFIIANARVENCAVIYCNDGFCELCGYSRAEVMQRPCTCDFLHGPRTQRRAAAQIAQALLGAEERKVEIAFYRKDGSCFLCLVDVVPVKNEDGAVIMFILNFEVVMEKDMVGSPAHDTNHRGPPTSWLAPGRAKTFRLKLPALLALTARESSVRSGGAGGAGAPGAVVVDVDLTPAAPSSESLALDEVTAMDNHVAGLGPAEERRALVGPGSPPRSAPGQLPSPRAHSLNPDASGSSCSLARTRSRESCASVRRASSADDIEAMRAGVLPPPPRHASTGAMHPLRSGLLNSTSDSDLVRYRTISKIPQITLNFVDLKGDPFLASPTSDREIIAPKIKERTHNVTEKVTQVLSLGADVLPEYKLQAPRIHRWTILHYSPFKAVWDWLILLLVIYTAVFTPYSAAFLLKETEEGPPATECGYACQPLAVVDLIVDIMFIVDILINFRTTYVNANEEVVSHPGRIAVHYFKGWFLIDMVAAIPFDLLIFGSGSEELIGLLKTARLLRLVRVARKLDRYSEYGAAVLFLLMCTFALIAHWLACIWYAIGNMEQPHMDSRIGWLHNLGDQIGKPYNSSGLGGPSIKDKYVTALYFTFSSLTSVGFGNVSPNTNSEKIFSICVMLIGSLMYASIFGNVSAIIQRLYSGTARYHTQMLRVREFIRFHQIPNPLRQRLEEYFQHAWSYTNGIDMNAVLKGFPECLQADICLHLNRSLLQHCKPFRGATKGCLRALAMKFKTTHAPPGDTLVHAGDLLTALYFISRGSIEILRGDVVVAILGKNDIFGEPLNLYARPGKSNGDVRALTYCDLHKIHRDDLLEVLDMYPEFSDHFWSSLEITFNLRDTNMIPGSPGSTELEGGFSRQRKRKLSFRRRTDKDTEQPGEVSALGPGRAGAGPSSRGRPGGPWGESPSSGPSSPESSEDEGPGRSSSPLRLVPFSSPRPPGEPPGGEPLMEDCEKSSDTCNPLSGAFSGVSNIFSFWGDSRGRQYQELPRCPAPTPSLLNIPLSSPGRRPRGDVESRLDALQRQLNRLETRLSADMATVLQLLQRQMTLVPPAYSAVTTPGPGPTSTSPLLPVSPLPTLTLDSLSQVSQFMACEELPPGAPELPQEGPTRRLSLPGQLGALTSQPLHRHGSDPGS
RESULT TYPE: IC50 (nM)

- STRUCTURE: "C[n+]1c(C#Cc2ccc(-c3ccccc3)cc2)cccc1C#Cc1ccc(-c2ccccc2)cc1"
  READOUT UNIT: "nM"
  REPORTED MEASUREMENT: 107

====

- TESTED ON: Kv11.1 (KCNH2, hERG) (Homo sapiens, UniProt Q12809)
- Sequence (Q12809 whole entry): as above
- PROTOCOL DETAILS: in vitro
- EXPERIMENTAL CONDITIONS: hek293
# reported residence time; entries follow
RESULT TYPE: residence time (min)

- STRUCTURE: "O=C(c1ccc(Cl)cc1)C1CCN(CCc2ccc(Cl)c(Cl)c2)CC1"
  TESTED ON: "Kv11.1 (KCNH2, hERG) (Homo sapiens, UniProt Q12809)"
  RESULT TYPE: "residence time"
  REPORTED MEASUREMENT: 2.6
- STRUCTURE: "C[n+]1c(C#Cc2ccc(-c3ccc(Cl)cc3)cc2)cccc1C#Cc1ccc(-c2ccc(Cl)cc2)cc1"
  TESTED ON: "Kv11.1 (KCNH2, hERG) (Homo sapiens, UniProt Q12809)"
  RESULT TYPE: "residence time"
  REPORTED MEASUREMENT: 63
- STRUCTURE: "O=C(N(CCOc1ccc([N+](=O)[O-])cc1)CCc1ccc([N+](=O)[O-])cc1)C(F)(F)F"
  TESTED ON: "Kv11.1 (KCNH2, hERG) (Homo sapiens, UniProt Q12809)"
  RESULT TYPE: "residence time"
  REPORTED MEASUREMENT: 1.6
- STRUCTURE: "CCCCCCCCc1cccc(CCCCCCCC)n1"
  TESTED ON: "Kv11.1 (KCNH2, hERG) (Homo sapiens, UniProt Q12809)"
  RESULT TYPE: "residence time"
  REPORTED MEASUREMENT: 19
- STRUCTURE: "CCCCCCc1cccc(CCCCCC)[n+]1C"
  TESTED ON: "Kv11.1 (KCNH2, hERG) (Homo sapiens, UniProt Q12809)"
  RESULT TYPE: "residence time"
  REPORTED MEASUREMENT: 4.3
- STRUCTURE: "CN(CCOc1ccc([N+](=O)[O-])cc1)CCc1ccc([N+](=O)[O-])cc1"
  TESTED ON: "Kv11.1 (KCNH2, hERG) (Homo sapiens, UniProt Q12809)"
  RESULT TYPE: "residence time"
  REPORTED MEASUREMENT: 1.2

====

Measured kon accompanies every entry in the list below.
- TESTED ON: Kv11.1 (KCNH2, hERG) (Homo sapiens, UniProt Q12809)
- PROTOCOL DETAILS: in vitro
- EXPERIMENTAL CONDITIONS: hek293, probe [3H]dofetilide

- STRUCTURE: "C[n+]1c(CCc2ccc(-c3ccccc3)cc2)cccc1CCc1ccc(-c2ccccc2)cc1"
  READOUT UNIT: "M⁻¹ s⁻¹"
  kon: 26700
- STRUCTURE: "CN(CCOc1ccc(Cl)c(Cl)c1)CCc1ccc(Cl)c(Cl)c1"
  READOUT UNIT: "M⁻¹ s⁻¹"
  kon: 1030
- STRUCTURE: "CCCCCCCCCCC#Cc1cccc(C#CCCCCCCCCCC)[n+]1C"
  READOUT UNIT: "M⁻¹ s⁻¹"
  kon: 550
- STRUCTURE: "Cc1ccc(-c2ccc(C#Cc3cccc(C#Cc4ccc(-c5ccc(C)cc5)cc4)[n+]3C)cc2)cc1"
  READOUT UNIT: "M⁻¹ s⁻¹"
  kon: 1430
- STRUCTURE: "CC(=O)N(CCOc1ccc([N+](=O)[O-])cc1)CCc1ccc([N+](=O)[O-])cc1"
  READOUT UNIT: "M⁻¹ s⁻¹"
  kon: 163000
- STRUCTURE: "COc1ccc(CCN(C)CCOc2ccccc2)cc1"
  READOUT UNIT: "M⁻¹ s⁻¹"
  kon: 9330
- STRUCTURE: "CCCCCCCCCCCCc1cccc(CCCCCCCCCCCC)[n+]1C"
  READOUT UNIT: "M⁻¹ s⁻¹"
  kon: 3000
- STRUCTURE: "CCCCCCCc1cccc(CCCCCCC)[n+]1C"
  READOUT UNIT: "M⁻¹ s⁻¹"
  kon: "4.17e+06"
- STRUCTURE: "O=C(c1ccccc1)N1CCN(CCc2ccccc2)CC1"
  READOUT UNIT: "M⁻¹ s⁻¹"
  kon: 4500
- STRUCTURE: "CCCN(CC)CC#Cc1ccc(C)cc1"
  READOUT UNIT: "M⁻¹ s⁻¹"
  kon: 5170
- STRUCTURE: "C[n+]1c(C#Cc2ccc(-c3ccc(O)cc3)cc2)cccc1C#Cc1ccc(-c2ccc(O)cc2)cc1"
  READOUT UNIT: "M⁻¹ s⁻¹"
  kon: 8500
- STRUCTURE: "CCN(CCOc1ccc([N+](=O)[O-])cc1)CCc1ccc([N+](=O)[O-])cc1"
  READOUT UNIT: "M⁻¹ s⁻¹"
  kon: "2.5e+06"
- STRUCTURE: "CCCCCCCCCc1cccc(CCCCCCCCC)[n+]1C"
  READOUT UNIT: "M⁻¹ s⁻¹"
  kon: 300000

====

- TESTED ON: Kv11.1 (KCNH2, hERG) (Homo sapiens)
- PROTOCOL DETAILS: in vitro
- EXPERIMENTAL CONDITIONS: hek293, probe [3H]dofetilide
RESULT TYPE: residence time (min)

- STRUCTURE: "CC(=O)N(CCOc1ccc([N+](=O)[O-])cc1)CCc1ccc([N+](=O)[O-])cc1"
  RESULT TYPE: "residence time"
  READOUT UNIT: "min"
  REPORTED MEASUREMENT: 0.56
- STRUCTURE: "CN(CCOc1ccc(Cl)c(Cl)c1)CCc1ccc(Cl)c(Cl)c1"
  RESULT TYPE: "residence time"
  READOUT UNIT: "min"
  REPORTED MEASUREMENT: 5.3
- STRUCTURE: "CCCCCCCCCCC#Cc1cccc(C#CCCCCCCCCCC)[n+]1C"
  RESULT TYPE: "residence time"
  READOUT UNIT: "min"
  REPORTED MEASUREMENT: 8.3
- STRUCTURE: "COc1ccc(CCN(C)CCOc2ccccc2)cc1"
  RESULT TYPE: "residence time"
  READOUT UNIT: "min"
  REPORTED MEASUREMENT: 3.3

====

Ki, Voltage-gated inwardly rectifying potassium channel KCNH2 (Homo sapiens, UniProt Q12809): measured values
RESULT TYPE: Ki (nM)

- STRUCTURE: "C(#Cc1cccc(C#Cc2ccc(-c3ccccc3)cc2)n1)c1ccc(-c2ccccc2)cc1"
  RESULT TYPE: "Ki"
  MODIFIER SIGN: ">"
  REPORTED MEASUREMENT: 100000
- STRUCTURE: "C[n+]1c(C#Cc2ccc(-c3ccc(O)cc3)cc2)cccc1C#Cc1ccc(-c2ccc(O)cc2)cc1"
  RESULT TYPE: "Ki"
  MODIFIER SIGN: "="
  REPORTED MEASUREMENT: 153
- STRUCTURE: "CCCCCCC[N+](CC)(CC)CC#Cc1ccc(Cl)cc1"
  RESULT TYPE: "Ki"
  MODIFIER SIGN: "="
  REPORTED MEASUREMENT: 1.8
- STRUCTURE: "C[n+]1c(CCc2ccc(-c3ccccc3)cc2)cccc1CCc1ccc(-c2ccccc2)cc1"
  RESULT TYPE: "Ki"
  MODIFIER SIGN: "="
  REPORTED MEASUREMENT: 63
- STRUCTURE: "CC(=O)N(CCOc1ccc([N+](=O)[O-])cc1)CCc1ccc([N+](=O)[O-])cc1"
  RESULT TYPE: "Ki"
  MODIFIER SIGN: "="
  REPORTED MEASUREMENT: 251
- STRUCTURE: "O=C(c1ccc(Cl)cc1)C1CCN(CCc2ccc(Cl)c(Cl)c2)CC1"
  RESULT TYPE: "Ki"
  MODIFIER SIGN: "="
  REPORTED MEASUREMENT: 54
- STRUCTURE: "C[n+]1c(C#Cc2ccc(-c3ccccc3)cc2)cccc1C#Cc1ccc(-c2ccccc2)cc1"
  RESULT TYPE: "Ki"
  MODIFIER SIGN: "="
  REPORTED MEASUREMENT: 86
- STRUCTURE: "C[n+]1c(C#Cc2ccc(-c3cccc(Cl)c3)cc2)cccc1C#Cc1ccc(-c2cccc(Cl)c2)cc1"
  RESULT TYPE: "Ki"
  MODIFIER SIGN: "="
  REPORTED MEASUREMENT: 139
- STRUCTURE: "CN(CCOc1ccc([N+](=O)[O-])cc1)CCc1ccc([N+](=O)[O-])cc1"
  RESULT TYPE: "Ki"
  MODIFIER SIGN: "="
  REPORTED MEASUREMENT: 24
- STRUCTURE: "Cc1ccccc1-c1ccc(C#Cc2cccc(C#Cc3ccc(-c4ccccc4C)cc3)[n+]2C)cc1"
  RESULT TYPE: "Ki"
  MODIFIER SIGN: "="
  REPORTED MEASUREMENT: 577
- STRUCTURE: "O=C(N(CCOc1ccc([N+](=O)[O-])cc1)CCc1ccc([N+](=O)[O-])cc1)C(F)(F)F"
  RESULT TYPE: "Ki"
  MODIFIER SIGN: "="
  REPORTED MEASUREMENT: 355

The reported numbers originate from ChEMBL document CHEMBL3588758.
